Test system: Female ICR-CD-1 mice
experiment description: Oral administration of absorption promoter mixed with insulin to mice: decrease in blood glucose and elevation of blood insulin versus control
Type: in vivo
Parameters: unit not given here
recorded conditions: oral, mice; sample 1.5 mg/10 g with insulin 2.5 U/10 g body weight; 60 minutes; vs control group
Where a SMILES comes first, the peptide text is derived from it. [ ]: non-standard residue; d: D form. The star is where a group is joined. Cbz = O=C(OCc1ccccc1)*
observed property: Degree of Elevation of Blood Insulin
API doc: respond with a numeric literal and nothing else, no unit.

Worked cases, Degree of Elevation of Blood Insulin given:
compound: Cc1ccc(C=CC(=O)N[C@@H](Cc2ccccc2)C(=O)O)cc1
observed property: Degree of Elevation of Blood Insulin
numeric value: 1.0

compound: O=C(COc1ccc(Cl)cc1)N[C@@H](Cc1ccccc1)C(=O)O
observed property: Degree of Elevation of Blood Insulin
numeric value: 9.82

compound: O=C(N[C@H](Cc1ccccc1)C(=O)N[C@@H](Cc1ccccc1)C(=O)O)OCc1ccccc1 [Sample S-20] (Cbz-[dF]-Phe-OH)
observed property: Degree of Elevation of Blood Insulin
numeric value: 2.46

Attention now shifts to the item below.
Look up Degree of Elevation of Blood Insulin: O=C(C=Cc1ccc(Cl)cc1)N[C@@H](Cc1ccccc1)C(=O)O
3.04

---

Tested on: Female CD-1(ICR) Mice
experiment description: Toxicity studies of phenylalanine derivatives (LD50)
Format: in vivo
recorded conditions: mouse, in vivo
From the text: Toxicity Studies of Phenylalanine Derivatives with Oral IN Potentiating Activity in Female CD-1(ICR) Mice are as follows: Phenylalanine derivatives were suspended in 0.5% CMC.
# LD50 (mg/kg) values compiled below

compound: O=C(COc1cccc2ccccc12)N[C@@H](Cc1ccccc1)C(=O)O [Sample S-11, N-[(1-naphthoxy)acetyl]-L-phenylalanine]
LD50 (mg/kg): > 4,000 mg/kg
--
compound: O=C(C=Cc1ccccc1)N[C@@H](Cc1ccccc1)C(=O)O
LD50 (mg/kg): > 2,500 mg/kg
--
compound: O=C(COc1ccc(Cl)cc1)N[C@@H](Cc1ccccc1)C(=O)O
LD50 (mg/kg): > 3,500 mg/kg
--
compound: O=C(COc1ccc2ccccc2c1)N[C@@H](Cc1ccccc1)C(=O)O [Sample S-12, N-[(2-naphthoxy)acetyl]-L-phenylalanine]
LD50 (mg/kg): > 4,000 mg/kg

Attention now shifts to the item below.
Look up LD50 (mg/kg): O=C(COc1ccccc1)N[C@@H](Cc1ccccc1)C(=O)O
> 4,000 mg/kg

---

# LD50 (mg/kg) values compiled below
System: Female CD-1(ICR) Mice
experiment description: Toxicity studies of phenylalanine derivatives (LD50)
Assay type: in vivo
recorded conditions: female CD-1(ICR) mice; suspended in 0.5% CMC
Where a SMILES comes first, the peptide text is derived from it. The star is where a group is joined. Cbz = O=C(OCc1ccccc1)*

compound: O=C(N[C@@H](Cc1ccccc1)C(=O)N[C@@H](Cc1ccccc1)C(=O)O)OCc1ccccc1 [Sample S-7] (Cbz-Phe-Phe-OH)
LD50 (mg/kg): > 3,000 mg/kg

API: value(readout=LD50 (mg/kg), system=Female CD-1(ICR) Mice) for record O=C(N[C@H](Cc1ccccc1)C(=O)O)OCc1ccccc1 [Sample S-18, N-benzyloxycarbonyl-D-phenylalanine]
> 4,000 mg/kg

Query O=C(N[C@@H](Cc1ccccc1)C(=O)O)OCc1ccccc1 [Sample S-15, N-benzyloxycarbonyl-L-phenylalanine] next
> 2,750 mg/kg

Query O=C(N[C@@H](Cc1ccccc1)C(=O)N[C@@H](Cc1ccc(O)cc1)C(=O)O)OCc1ccccc1 [Sample S-10] (Cbz-Phe-Tyr-OH) next
> 3,000 mg/kg

---

Test system: Female ICR-CD-1 mice
experiment description: Oral administration of absorption promoter mixed with insulin to mice: decrease in blood glucose and elevation of blood insulin versus control
Type: in vivo
recorded conditions: oral, mice; sample 6.0 mg/10 g with insulin 2.5 U/10 g body weight; 30 minutes; vs control group
Where a SMILES comes first, the peptide text is derived from it. [ ]: non-standard residue; d: D form. The star is where a group is joined. Cbz = O=C(OCc1ccccc1)*
Assign class by Decrease in Blood Glucose (%): not lower than 40% means TRUE; lower than 40% means FALSE.

Use these answered entries as a reference point.
compound: O=C(C=Cc1ccccc1)N[C@@H](Cc1ccccc1)C(=O)O
experimental target: Female ICR-CD-1 mice
class label: TRUE
//
compound: O=C(Cc1cccc2ccccc12)N[C@@H](Cc1ccccc1)C(=O)O [Sample S-1, N-[(1-naphthyl)acetyl]-L-phenylalanine]
experimental target: Female ICR-CD-1 mice
class label: TRUE
//
compound: O=C(CCCc1ccccc1)N[C@@H](Cc1ccccc1)C(=O)O
experimental target: Female ICR-CD-1 mice
class label: TRUE

Check the entry O=C(N[C@@H](Cc1ccc(O)cc1)C(=O)O)OCc1ccccc1 : does Decrease in Blood Glucose (%) equal or exceed 40%?
FALSE

Query O=C(N[C@@H](Cc1ccccc1)C(=O)N[C@H](Cc1ccccc1)C(=O)O)OCc1ccccc1 [Sample S-21] (Cbz-Phe-[dF]-OH) next
TRUE

Query O=C(COc1cccc2ccccc12)N[C@@H](Cc1ccccc1)C(=O)O [Sample S-11, N-[(1-naphthoxy)acetyl]-L-phenylalanine] next
TRUE

Query O=C(N[C@@H](Cc1ccccc1)C(=O)O)c1ccccc1 next
FALSE

Query O=C(COc1ccc([N+](=O)[O-])cc1)NC(Cc1ccc([N+](=O)[O-])cc1)C(=O)O (racemic) next
FALSE

Query O=C(N[C@@H](Cc1ccccc1)C(=O)N[C@@H](Cc1ccc(O)cc1)C(=O)O)OCc1ccccc1 [Sample S-10] (Cbz-Phe-Tyr-OH) next
TRUE

---

# Degree of Elevation of Blood Insulin values compiled below
Test system: Female ICR-CD-1 mice
experiment description: Oral administration of absorption promoter mixed with insulin to mice: decrease in blood glucose and elevation of blood insulin versus control
Type: in vivo
Design: unit not given here
recorded conditions: oral, mice; sample 3.0 mg/10 g with insulin 2.5 U/10 g body weight; 60 minutes; vs control group
Where a SMILES comes first, the peptide text is derived from it. The star is where a group is joined. Cbz = O=C(OCc1ccccc1)*
API doc: respond with a numeric literal and nothing else, no unit.

Look up Degree of Elevation of Blood Insulin: O=C(COc1ccccc1)N[C@H](Cc1ccccc1)C(=O)O
2.67

Query O=C(N[C@@H](Cc1ccccc1)C(=O)N[C@@H](Cc1ccccc1)C(=O)O)OCc1ccccc1 [Sample S-7] (Cbz-Phe-Phe-OH) next
9.35

Query O=C(N[C@@H](Cc1ccccc1)C(=O)O)OCc1ccccc1 next
2.36

Query COc1ccc(COC(=O)N[C@@H](Cc2ccccc2)C(=O)O)cc1 next
21.2

Query COc1cccc(C=CC(=O)N[C@@H](Cc2ccccc2)C(=O)N[C@@H](Cc2ccccc2)C(=O)O)c1 next
4.55

Query O=C(N[C@@H](Cc1ccc(OC(=O)OCc2ccccc2)cc1)C(=O)O)OCc1ccccc1 next
2.04

---

Test system: Female ICR-CD-1 mice
experiment description: Oral administration of absorption promoter mixed with insulin to mice: decrease in blood glucose and elevation of blood insulin versus control
Assay type: in vivo
recorded conditions: oral, mice; sample 1.5 mg/10 g with insulin 2.5 U/10 g body weight; 60 minutes; vs control group
Where a SMILES comes first, the peptide text is derived from it. [ ]: non-standard residue; d: D form. The star is where a group is joined. Cbz = O=C(OCc1ccccc1)*
observed property: Decrease in Blood Glucose (%)
Express the result in % but write the number alone.

compound: O=C(N[C@H](Cc1ccccc1)C(=O)N[C@@H](Cc1ccccc1)C(=O)O)OCc1ccccc1 [Sample S-20] (Cbz-[dF]-Phe-OH)
Decrease in Blood Glucose (%): 32.7

Look up Decrease in Blood Glucose (%): O=C(C=Cc1ccc(Cl)cc1)N[C@H](Cc1ccccc1)C(=O)O
29.5

Query O=C(COc1ccc(Cl)cc1)N[C@@H](Cc1ccccc1)C(=O)O next
18.5

Query Cc1ccc(C=CC(=O)N[C@@H](Cc2ccccc2)C(=O)O)cc1 next
34.4

Query O=C(C=Cc1ccc(Cl)cc1)N[C@@H](Cc1ccccc1)C(=O)O next
27.4

---

Test system: Female ICR-CD-1 mice
experiment description: Oral administration of absorption promoter mixed with insulin to mice: decrease in blood glucose and elevation of blood insulin versus control
Format: in vivo
recorded conditions: oral, mice; sample 6.0 mg/10 g with insulin 2.5 U/10 g body weight; 30 minutes; vs control group
observed property: Decrease in Blood Glucose (%)
Express the result in % but write the number alone.

molecule: Cc1ccc(S(=O)(=O)N[C@@H](Cc2ccccc2)C(=O)O)cc1 [Sample S-33, N-(4-toluenesulfonyl)-L-phenylalanine]
Decrease in Blood Glucose (%): 51.6
--
molecule: O=C(N[C@H](Cc1ccccc1)C(=O)O)OCc1ccccc1 [Sample S-18, N-benzyloxycarbonyl-D-phenylalanine]
Decrease in Blood Glucose (%): 52.3
--
molecule: O=C(COc1ccc2ccccc2c1)N[C@@H](Cc1ccccc1)C(=O)O [Sample S-12, N-[(2-naphthoxy)acetyl]-L-phenylalanine]
Decrease in Blood Glucose (%): 50.8

Attention now shifts to the item below.
API: value(readout=Decrease in Blood Glucose (%), system=Female ICR-CD-1 mice) for record Cc1ccc(S(=O)(=O)NC(Cc2ccccc2)C(=O)O)cc1 (racemic) [Sample S-34, N-(4-toluenesulfonyl)-DL-phenylalanine]
27.3

These data points were gathered from patent US4650785A.
